koff values, listed per item
# assaySystem: T1, recombinant human IL-19 (human, UniProt Q9UHD0 25-177)
# T1 construct: also called human IL-19 recombinant protein; interleukin-19
# T1 sequence: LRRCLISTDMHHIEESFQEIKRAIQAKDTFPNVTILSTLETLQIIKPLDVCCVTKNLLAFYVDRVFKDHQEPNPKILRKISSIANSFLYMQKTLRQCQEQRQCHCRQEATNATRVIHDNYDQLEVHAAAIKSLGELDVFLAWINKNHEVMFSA
# assayInfo: BLI (Octet Red96), antibody on AMQ biosensor, IL-19 in solution, 25 C, 1:1 fit
measureName: koff (s⁻¹)

- rabbit derived IL-19 Ab 2 (R_2) (antibody, V domains shown) VH: QQLEESGGGLVQPEGSLTLTCTASGFSFSSSYWICWVRQAPGKGLEWLACIDTGVSGDTYYANWAKGRFTISKTSSTTVTLQMTSLTAADTATYFCARDIFGSAIDNSLWGPGTLVTVSS VL: DVVMTQTPASVEAAVGGTVTIKCQASESIGNALAWYQQKPGQPPKLLIYDASKLASGVPSRFKGSGSGTQFTLTISDLECADAATYYCQCHYHGSSYWDNSFGGGTEVVVK: 4.42e-05
- murine derived IL-19 Ab 5 (M_5) (antibody, mouse IgG1, kappa, V domains shown) VH: EVQLQQSGPVLVKPGASVKMSCKASGYPFNDYFLGWVKQSHGKSLEWIGSINPDNDYTMSNQKFKGKATLTVDKSSSTAYMELNSLTSEDSAVYYCARYDYDWAWFAHWGQGTLVTVSA VL: DIVMTQSPSSLAMSVGQKVTMSCKSSQSLLSSYNQKNYLAWYQRKPGQSPKLLVYFASQRATGVPDRFIGSGSGSDFTLTISSVQAEDLADYFCQQHTRLPITFGAGTKLELKR: 3.58e-05
- rabbit derived IL-19 Ab 1 (R_1) (antibody, V domains shown) VH: QQLEESGGGLVQPEGSLTLTCTASGFSFSSSYWICWVRQAPGKGLEWLACIDTGVSGDTYYANWAEGRFTISKTSSTTVTLQMTSLTAADTATYFCARDIFGSAIDNSLWGPGTLVTVSS VL: AIDMTQTPASVSEPVGGTVTIKCQASQSISSYLAWYQQKPGQPPKLLIYSASTLASGVPSRFRGSGSGREFTLTISDLECADAATYYCQCHYHGSSYWDNSFGGGTEVVVK: 1.04e-05
- rabbit derived IL-19 antibody R_4 (antibody, V domains shown) VH: CQSVEESGGRLVTPGTPLTLTCTVSGIDLSIYAMGWVRQAPGKGLEYIGIIDTTGTAYYARWAKGRFTISKTSATVALKITSPTTEDTATYFCARDSGSLYYGSYALWGPGTLVTVSS VL: DVVMTQTPSSVSEPVGGTVTIKCQASQSIYSYLSWYQQKPGQPPKLLIYEASKLASGVPSRFKGSGSGTQFTLTISGVECADAATYYCQQGYSSSNVDNTFGGGTEVVVT: 0.0013
- rabbit derived IL-19 Ab 39 (R_39) (antibody, V domains shown) VH: QEQLKESGGGLVQPGGSLKLSCKASGFDLSSYGVSWVRQAPGKGLEWIGYIDPVFGSTYYANWVNGRFTISSDNAQNTLYLQLNSLTAADTATYFCARGSGYVYYGYTYDLWGPGTLVTVSS VL: DIVMTQTPASVEAAVGGTVTIKCQASQSIYRYLSWYQQKPGQRPKLLIYGASNLASGVSSRFKGSGSGTEFTLTISDLECADAATYYCQSYYYSSSSGYGNVFGGGTEVVVKG: 0.0348
- murine derived IL-19 Ab 2 (M_2) (antibody, mouse IgG1, kappa, V domains shown) VH: LVQLQQSDAELVKPGASLKISCKVSGYTFTDHALHWMKQRPEQGLEWIGYIYPRDGSTKYNEKFKGKATLTADRSSSTAYMELNSLTSEDSAVYFCARGWDFAMDYWGQGTSVTVSS VL: DIVLTQSPESLAVSLGQRATISCRASESVDNYGISFIHWYQQKPGQPPKLLIYRASNLKSGIPARFSGRGSRTDFTLTINPVETDDVATYYCQQINKDPLTFGAGTKLELKR: 0.000185
- murine derived IL-19 Ab 1 (M_1) (antibody, mouse IgG1, kappa, V domains shown) VH: EVQLQQSGPVLVKPGASVKMSCKASGYKFTDYFVGWVKQSHGKSLEWIGYVDPENGYTRCNQKFKGKATLTVDKSSSTAYMELNSLTSEDSAVYYCARYDYDWAWFTNWGQGTLVTVSA VL: DIVMTQSPSSLAMSVGQKVTMSCKSSQSLLSSYNQKNYLAWYQQKPGQSPKLLVYFASTRPPGVPDRFIGSGSGSDFTLTISSVQAEDLADYFCQQHERLPITFGAGTKLELKR: 6.32e-05
